- Test system: KB-3-1
- measurement notes: Cytotoxic Profiling of Annotated Libraries Using Quantitative High-Throughput Screening (AID 1296008); also: % is scaled to controls: 0 for no effect and ±100 for the full control effect
- experimental conditions: Five cell lines viability, CellTiter-Glo ATP luminescence, 48-72 h; stronger effect = lower value
Records with an inconclusive call do not appear.
Each entry below carries its recorded max response.
# unit: % | format: bare number

Consider the worked cases shown below.
{"molecule": "Clc1ccc(N2C[C@H]3CC[C@@H](C2)N3)nn1", "experimental system": "KB-3-1", "measured endpoint": "max response", "units symbol": "%", "value measured": 2.38}
{"molecule": "O=C1CN(O)C(c2ccccc2)=c2cc(Cl)ccc2=N1", "experimental system": "KB-3-1", "measured endpoint": "max response", "units symbol": "%", "value measured": -7.95}
{"molecule": "O=C1C[C@@H]2OCC=C3CN4CC[C@]56c7ccccc7N1[C@H]5[C@H]2[C@H]3C[C@H]46", "experimental system": "KB-3-1", "measured endpoint": "max response", "units symbol": "%", "value measured": -9.91}

Query: Look up max response of c1ccc2sc(SNC3CCCCC3)nc2c1 and report it.
Reply: -2.06

Query: Look up max response of CCCCCCC(=O)O[C@H]1CC[C@H]2[C@@H]3CC[C@H]4CC(=O)C=C(C)[C@]4(C)[C@H]3CC[C@]12C and report it.
Reply: -2.21

Query: Look up max response of CC(C)[C@@H](CN1CC[C@@](C)(c2cccc(O)c2)[C@@H](C)C1)NC(=O)[C@H]1Cc2ccc(O)cc2CN1 and report it.
Reply: 4.16
